// data source = patent US20250270209A1

log10 IC50 by entry:
# system: wild type LRRK2 overexpressed in recombinant HEK-293T cells (Homo sapiens)
# Construct: host or cells: HEK293T (transient transfection with pCMV-LRRK2 WT plasmid)
# Sequence (Q5S007 whole entry): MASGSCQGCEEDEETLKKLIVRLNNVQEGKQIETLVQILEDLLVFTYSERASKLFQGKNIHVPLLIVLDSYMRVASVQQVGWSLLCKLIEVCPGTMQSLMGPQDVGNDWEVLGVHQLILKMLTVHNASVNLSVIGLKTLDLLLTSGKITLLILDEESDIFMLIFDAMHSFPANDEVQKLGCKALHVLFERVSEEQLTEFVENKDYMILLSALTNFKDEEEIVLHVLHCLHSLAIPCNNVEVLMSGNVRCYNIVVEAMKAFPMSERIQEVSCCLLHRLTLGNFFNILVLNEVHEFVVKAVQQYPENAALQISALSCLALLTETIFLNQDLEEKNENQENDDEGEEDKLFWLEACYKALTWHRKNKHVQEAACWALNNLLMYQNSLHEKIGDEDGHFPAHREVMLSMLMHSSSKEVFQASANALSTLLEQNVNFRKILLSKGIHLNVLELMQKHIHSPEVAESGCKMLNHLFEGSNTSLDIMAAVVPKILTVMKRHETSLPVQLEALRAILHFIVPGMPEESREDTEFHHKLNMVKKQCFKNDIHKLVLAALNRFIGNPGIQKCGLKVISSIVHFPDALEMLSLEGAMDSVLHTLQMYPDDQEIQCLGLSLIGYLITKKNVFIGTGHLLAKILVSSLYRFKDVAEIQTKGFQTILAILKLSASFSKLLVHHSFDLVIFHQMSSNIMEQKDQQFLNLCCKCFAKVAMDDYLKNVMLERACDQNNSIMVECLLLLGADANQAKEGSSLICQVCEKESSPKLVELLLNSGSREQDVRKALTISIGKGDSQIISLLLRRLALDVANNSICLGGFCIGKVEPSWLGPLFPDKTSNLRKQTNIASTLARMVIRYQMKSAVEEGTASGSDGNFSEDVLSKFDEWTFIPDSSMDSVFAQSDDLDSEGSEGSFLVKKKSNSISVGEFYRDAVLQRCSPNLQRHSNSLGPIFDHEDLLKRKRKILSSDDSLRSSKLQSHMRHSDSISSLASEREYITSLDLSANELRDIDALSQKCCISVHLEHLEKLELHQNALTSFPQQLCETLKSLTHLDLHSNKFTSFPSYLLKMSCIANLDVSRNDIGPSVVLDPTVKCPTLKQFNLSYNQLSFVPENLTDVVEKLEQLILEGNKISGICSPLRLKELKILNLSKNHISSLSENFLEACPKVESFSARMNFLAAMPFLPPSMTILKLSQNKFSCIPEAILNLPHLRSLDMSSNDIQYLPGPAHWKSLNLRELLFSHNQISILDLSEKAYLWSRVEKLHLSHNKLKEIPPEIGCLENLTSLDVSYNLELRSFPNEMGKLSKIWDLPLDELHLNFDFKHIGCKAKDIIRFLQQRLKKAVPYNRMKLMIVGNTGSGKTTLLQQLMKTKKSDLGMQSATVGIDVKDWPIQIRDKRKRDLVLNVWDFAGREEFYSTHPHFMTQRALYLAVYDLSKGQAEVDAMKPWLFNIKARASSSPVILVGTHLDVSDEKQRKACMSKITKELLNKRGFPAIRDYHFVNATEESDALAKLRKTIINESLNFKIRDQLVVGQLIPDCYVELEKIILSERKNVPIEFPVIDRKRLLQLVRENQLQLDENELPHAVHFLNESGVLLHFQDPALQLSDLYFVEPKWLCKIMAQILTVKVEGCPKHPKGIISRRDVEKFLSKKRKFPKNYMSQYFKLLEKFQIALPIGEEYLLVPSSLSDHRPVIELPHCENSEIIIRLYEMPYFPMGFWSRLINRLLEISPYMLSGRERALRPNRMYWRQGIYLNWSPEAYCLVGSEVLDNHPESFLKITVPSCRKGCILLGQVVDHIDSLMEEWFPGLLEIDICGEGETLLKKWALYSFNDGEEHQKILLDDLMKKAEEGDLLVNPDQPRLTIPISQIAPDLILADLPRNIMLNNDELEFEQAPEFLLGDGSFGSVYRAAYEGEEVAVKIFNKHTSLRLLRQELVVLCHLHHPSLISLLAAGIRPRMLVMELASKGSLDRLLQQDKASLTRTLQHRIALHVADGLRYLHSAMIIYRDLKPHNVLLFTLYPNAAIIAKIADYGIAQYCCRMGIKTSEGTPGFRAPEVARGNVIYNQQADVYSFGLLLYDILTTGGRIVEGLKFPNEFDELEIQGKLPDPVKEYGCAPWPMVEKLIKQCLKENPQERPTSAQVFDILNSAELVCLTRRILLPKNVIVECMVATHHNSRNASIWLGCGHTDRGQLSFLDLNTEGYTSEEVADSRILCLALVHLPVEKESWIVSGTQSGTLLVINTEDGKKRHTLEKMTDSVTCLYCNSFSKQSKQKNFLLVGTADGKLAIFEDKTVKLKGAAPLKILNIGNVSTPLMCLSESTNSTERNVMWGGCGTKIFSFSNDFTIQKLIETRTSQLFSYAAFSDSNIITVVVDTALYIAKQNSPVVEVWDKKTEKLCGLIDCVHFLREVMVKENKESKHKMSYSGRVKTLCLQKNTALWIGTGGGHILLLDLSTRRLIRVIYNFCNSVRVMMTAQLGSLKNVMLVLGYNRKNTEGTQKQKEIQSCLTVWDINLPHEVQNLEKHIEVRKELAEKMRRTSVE
# assay.overview: pS935 LRRK2 Cell Assay (HTRF, phospho-LRRK2 Ser935)
# Format: cell-based
# assay.context: LRRK2 Inhibition, Table 8, 2 hours compound incubation
measure.name: log10 IC50 (log10 of the value in µM)

> print(dat)
                                   molecule  measure.name  number
1  Cc1noc(C)c1NC(=O)Cc1nc2cnc3ccc(C#N)cc3c2n1[C@@H]1CCO[C@H](C)C1    log10 IC50   -1.94
2  C[C@@H]1C[C@H](n2c([C@H]3CC(=O)N(c4cnn(C)c4)C3)nc3cnc4ccc(C#N)cc4c32)CCO1    log10 IC50    0.99
3  Cc1ccc(NC(=O)Cc2nc3cnc4ccc(C#N)cc4c3n2[C@@H]2CCO[C@H](C)C2)cn1    log10 IC50   -2.23
4  C[C@@H]1C[C@H](n2c(CC(=O)Nc3cncnc3)nc3cnc4ccc(C#N)cc4c32)CCO1    log10 IC50   -1.49
5  C[C@@H]1C[C@H](n2c(CC(=O)Nc3cccnc3C(F)(F)F)nc3cnc4ccc(C#N)cc4c32)CCO1    log10 IC50   -1.74
6  COc1cc(C(F)(F)F)ncc1NC(=O)Cc1nc2cnc3ccc(C#N)cc3c2n1[C@@H]1CCO[C@H](C)C1    log10 IC50   -2.50
7  COCCn1cc(N2CC(c3nc4cnc5ccc(C#N)cc5c4n3[C@@H]3CCO[C@H](C)C3)CC2=O)cn1 (stereo partly shown)    log10 IC50   -0.36
